measurement-target: T1, PD-1 molecule (refolded, purified and biotinylated PD-1 of Example 2) (UniProt Q15116 33-150, biotinylated with BirA enzyme (site not stated))
T1 construct: also called Programmed Death-1
T1 sequence (Q15116 33-150 limits assumed): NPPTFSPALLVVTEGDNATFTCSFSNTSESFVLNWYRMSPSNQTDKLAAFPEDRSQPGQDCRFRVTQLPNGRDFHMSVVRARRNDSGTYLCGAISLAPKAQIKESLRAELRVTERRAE
assay-overview: SPR (BIAcore T200), single-cycle kinetics; biotinylated PD-1 captured via streptavidin, PDL-1 variant in solution
readout-kind: Kd (nM)

[
  {
    "binder": "high affinity PDL-1 molecule L3B3 (ligand) FTVTVPKDLYVVEYGSNMTIECKFPVEKQLDLAALQVFWMMEDKNIIQFVHGEEDLKVQHSSYRQRARLLKDQLSLGNAALQITDVKLQDAGVYTCLIAYKGADYKRITVKVNAPYNKINQRILVVDPVTSEHELTCQAEGYPKAEVIWTSSDHQVLSGKTTTTNSKREEKLFNVTSTLRINTTTNEIFYCTFRRLDPEENHTAELVIPEL",
    "observed-measurement": 499
  },
  {
    "binder": "high affinity PDL-1 molecule L3C7d (ligand) WTVTVPKDLYVVEYGSNMTIECKFPVEKQLDLAALEVHWFMEDKNIFSFVHGEEDLKVQHSSYRQRARLLKDQLSLGNAALQITDVKLQDAGVYTCLIGYKGGADYKRITVKVNAPYNKINQRILVVDPVTSEHELTCQAEGYPKAEVIWTSSDHQVLSGKTTTTNSKREEKLFNVTSTLRINTTTNEIFYCTFRRLDPEENHTAELVIPEL",
    "observed-measurement": 53.9
  }
]
